Values compiled from patent US20030148956A1.

// values below are reported CRF2R EC50
- systemUnderTest: T1, CRF2R
- T1 sequence (Q13324 whole entry, species assumed, looked up): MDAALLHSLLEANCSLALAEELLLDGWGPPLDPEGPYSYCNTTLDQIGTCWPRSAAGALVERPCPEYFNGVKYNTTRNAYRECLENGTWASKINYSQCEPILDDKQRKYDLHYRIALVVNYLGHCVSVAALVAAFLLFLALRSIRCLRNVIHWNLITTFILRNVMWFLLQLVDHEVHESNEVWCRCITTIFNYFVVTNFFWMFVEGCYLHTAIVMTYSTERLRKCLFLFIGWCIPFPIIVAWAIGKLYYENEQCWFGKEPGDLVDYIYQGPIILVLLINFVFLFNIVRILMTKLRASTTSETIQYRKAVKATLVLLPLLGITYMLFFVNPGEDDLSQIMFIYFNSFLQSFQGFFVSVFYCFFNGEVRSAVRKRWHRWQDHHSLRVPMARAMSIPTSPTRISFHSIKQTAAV
- protocolNotes: cell-based or functional assay
Ends that are not written are not given here.
valueType: CRF2R EC50 (nM)

> print(dat)
                                      binder  qualifier  assayvalue
 1  ZGPPISIDLPIVLLRKMIEIEKQEKEKQQAANNRLLLDTI (C-terminal amide) [SEQ ID NO 31]          =        30.8
 2  SQEPPISLDLPLYLLREVLEMTKADQLAQQAHSNRKLLDIA-NH2 [SEQ ID NO 101]          =         100
 3  ZGPPISIDLPFQLLRKMIEIEKQEKEKQQATTNRLLLDTV (C-terminal amide) [SEQ ID NO 16]          =        7.88
 4  ZGPPISIDLPIKLLRKMIEIEKQEKEKQQAANNRLLLDTI (C-terminal amide) [SEQ ID NO 34]          >         100
 5  SEEPPISLDVPIGLLQEVLEMARAEQLAQQAHSNRKLMEII-NH2 [SEQ ID NO 162]          >         100
 6  DNPSLSIDLPFILLRTLLELARTQSQRERAEQNAIIFASV-NH2 [SEQ ID NO 181]          =        5.22
 7  ZGPPISIDLPWHLLRKMIEIEKQEKEKQQAANNRLLLDTI (C-terminal amide) [SEQ ID NO 209]          =         7.4
 8  ZGPPISIDLPLFLLRKMIEIEKQEKEKQQAANNRLLLDTI (C-terminal amide) [SEQ ID NO 195]          =        18.8
 9  DNPSLSIDLPFYLLRTLLELARTQSQRERAEQNAIIFASV-NH2 [SEQ ID NO 183]          =        7.93
10  ZGPPISIDLPIPLLRKMIEIEKQEKEKQQAANNRLLLDTI (C-terminal amide) [SEQ ID NO 26]          =        91.8
11  ZGIVLSLDVPIGLLRKMIEIEKQEKEKQQAANNRLLLDTI (C-terminal amide) [SEQ ID NO 153]          =        9.28
12  SQEPPISLDLPIQLLREVLEMTKADQLAQQAHSNRKLLDIA-NH2 [SEQ ID NO 100]          =         100
13  SQEIVLSLDVPIGLLREVLEMTKADQLAQQAHSNRKLLDIA-NH2 [SEQ ID NO 152]          >         100
14  IVLSLDVPIGLLQILLEQRAAREQATTNARILARV-NH2 [SEQ ID NO 136]          =        23.4
15  Ac-IVLSLDVPIGLLQILLEQEKARAAREQATTNARILARV-NH2 [SEQ ID NO 3]          =        12.1
16  SQEPPISLDLTIHLLREVLEMTKADQLAQQAHSNRKLLDIA-NH2 [SEQ ID NO 87]          =         100
17  ZGPPISIDLPFQLLRKMIEIEKQEKEKQQATTNRLLLATV (C-terminal amide) [SEQ ID NO 17]          =        10.2
18  ZGPPISIDLPFYLLRKMIEIEKQEKEKQQAANNRLLLDTI (C-terminal amide) [SEQ ID NO 85]          =        2.34
19  ZGPPISIDLPIWLLRKMIEIEKQEKEKQQAANNRLLLDTI (C-terminal amide) [SEQ ID NO 192]          =        66.8
20  SQEPPISLDLPTYLLREVLEMTKADQLAQQAHSNRKLLDIA-NH2 [SEQ ID NO 106]          =         100
21  ZGPPISIDLPLELLRKMIEIEKQEKEKQQATTNARILARV (C-terminal amide) [SEQ ID NO 143]          =        11.1
22  ZGPPISIDLPHHLLRKMIEIEKQEKEKQQAANNRLLLDTI (C-terminal amide) [SEQ ID NO 205]          =          25
23  ZGPPISIDLPFELLRKMIEIEKQEKEKQQAANNRLLLDTI (C-terminal amide) [SEQ ID NO 67]          =          10
24  IVLSLDVPIGLLQILIEIEKQEKEKQQAANNARILARV-NH2 [SEQ ID NO 166]          =         3.7
